- TEST_METHOD_NOTES: P-glycoprotein substrates identified in KB-8-5-11 adenocarcinoma cell line, qHTS therapeutic library screen (AID 1346987); note: nearly all actives have a fitted effect of over 65% in size
- TEST_CONDITIONS: KB-8-5-11 (P-gp overexpressing) viability, CellTiter-Glo, 72 h; series mostly up to 44.5 µM
Inconclusive results are not listed. The source made the active and inactive calls. Calls come from the whole dose curve; as a rule, active = well fitted inhibition curve with a large enough effect; inconclusive = small, poorly fitted or top-dose-only effect; inactive = flat fitted curve, though single readings scatter.
Give one outcome, nothing more. List: active, inactive

Outcome logged for CN(C)CC#CCCC(=O)C(O)(c1ccccc1)C1CCC1 (stereo unspecified) in this assay:
inactive

Outcome logged for `COc1cc(O)cc(/C=C/c2cccc(O)c2)c1` in this assay:
inactive

Outcome logged for `Cc1ccc(-c2cn3c4c(sc3n2)CCCC4)cc1` in this assay:
inactive

Outcome logged for `CCCOc1ccc2nc(NC(=O)OC)sc2c1` in this assay:
active

Outcome logged for `CS(=O)(=O)OCCCNCCCOS(C)(=O)=O` in this assay:
inactive

Outcome logged for `CC(=O)N[C@@H](C=O)[C@H](O)[C@H](O)[C@@H](O)CO` in this assay:
inactive

Outcome logged for `c1cnc2cc3c(cc2n1)[C@@H]1CNC[C@H]3C1` in this assay:
inactive

Outcome logged for `O=C(Nc1ccnc(NC(=O)C2CC2)c1)c1c(Cl)cccc1Cl` in this assay:
active

Outcome logged for CC(C)C[C@@H]1NC(=O)[C@@H]2C[C@@]34C[C@@H]5[C@@]6(C)CCCC(C)(C)C6CC[C@@]5(C)N(c5ccccc53)[C@H]4N2C1=O (stereo partly specified) in this assay:
inactive

Outcome logged for `COC(=O)c1ccc2c(c1)[nH]c1ncnc(NCCCN3CCCCC3)c12` in this assay:
inactive

Outcome logged for `Cc1cc(C)nc(SCC(=O)Nc2ncc(Cc3cccc4ccccc34)s2)n1` in this assay:
inactive

====

- TEST_METHOD_NOTES: P-glycoprotein substrates identified in KB-8-5-11 adenocarcinoma cell line, qHTS therapeutic library screen (AID 1346987); note: nearly all actives have a fitted effect of over 65% in size
- TEST_CONDITIONS: KB-8-5-11 (P-gp overexpressing) viability, CellTiter-Glo, 72 h; series mostly up to 44.5 µM
Results filed as inconclusive are left out. Active and inactive are the calls of the source. Calls follow the shape of the dose curve; as a rule, active = well fitted inhibition curve with a large enough effect; inconclusive = small, poorly fitted or top-dose-only effect; inactive = flat fitted curve, though single readings scatter.
Give one outcome, nothing more. List: Y (active), N (inactive)

Outcome logged for `CCC/C=C/c1cc2c(C=O)c(O)c(CC=C(C)C)cc2o1` in this assay:
N

Outcome logged for `CCCC1([C@H](O)C/C=C/[C@H]2[C@H](O)CC(=O)[C@@H]2CCCCCCC(=O)OC)CCC1` in this assay:
N

Outcome logged for `CCN(CC)c1ccc(N=Nc2ccc(S(=O)(=O)N(C)C)cc2)c(S(=O)(=O)NCC[n+]2ccccc2)c1` in this assay:
N

Outcome logged for COc1ccc(C2Oc3c(OC)cc(CCCO)cc3C2COC2OC(CO)C(O)C(O)C2O)cc1OC (stereo not drawn) in this assay:
N

Outcome logged for CC1CCCC[C@H]2C(=O)C=C[C@H](O)[C@@H]2CC(=O)O1 (stereo partly drawn) in this assay:
Y

Outcome logged for `CNc1cc2[nH]c(=O)n(-c3ccc(NC(=O)NS(=O)(=O)c4ccc(Cl)s4)cc3)c(=O)c2cc1F` in this assay:
N

Outcome logged for `CC(=O)OCC(=O)[C@@]12O[C@@H]1C[C@H]1[C@@H]3CC=C4C[C@@H](O)CC[C@]4(C)[C@H]3CC[C@@]12C` in this assay:
N

Outcome logged for C=C(C)[C@@H]1CC[C@]2(C(=O)O)CC[C@]3(C(=O)O)[C@H](CCC4[C@@]5(C)CCC(=O)C(C)(C)C5CC[C@]43C)C12 (stereo partly drawn) in this assay:
N
